target: CB1 receptor (Homo sapiens, UniProt P21554); experiment: FLIPR calcium flux assay, agonist format, CB1; type: cell-based; details: Emax of reference agonist CP-55,940 as 100%
Sequence (P21554 whole entry): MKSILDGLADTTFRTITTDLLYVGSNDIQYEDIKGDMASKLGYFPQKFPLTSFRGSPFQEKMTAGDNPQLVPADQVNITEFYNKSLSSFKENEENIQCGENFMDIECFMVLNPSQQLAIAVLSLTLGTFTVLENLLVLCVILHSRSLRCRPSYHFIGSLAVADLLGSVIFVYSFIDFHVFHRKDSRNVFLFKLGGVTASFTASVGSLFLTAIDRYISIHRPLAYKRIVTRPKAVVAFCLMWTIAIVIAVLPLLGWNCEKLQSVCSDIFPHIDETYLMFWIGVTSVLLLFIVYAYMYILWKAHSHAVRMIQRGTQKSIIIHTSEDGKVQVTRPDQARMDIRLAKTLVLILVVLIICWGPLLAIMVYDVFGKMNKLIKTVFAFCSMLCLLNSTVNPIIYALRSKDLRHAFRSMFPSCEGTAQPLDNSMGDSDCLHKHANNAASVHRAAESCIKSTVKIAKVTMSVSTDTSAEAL
Measured activation at 1 µM, listed per entry.
value kind: activation at 1 µM (%)

compound	value kind	scale unit	data value
C[C@H](C(=O)N(C)CC[C@H](Oc1ccc(C(F)(F)F)cc1)c1ccccc1)c1ccc(C(F)(F)F)cc1 [Compound 33f]	activation at 1 µM	%	-0.5
CC(C(=O)N(C)CC[C@H](Oc1ccc(C(F)(F)F)cc1)c1ccccc1)c1ccc(C(F)(F)F)cc1 (some centres unmarked) [Compound 33b]	activation at 1 µM	%	0.5
C[C@@H](C(=O)N(C)CC[C@@H](Oc1ccc(C(F)(F)F)cc1)c1ccccc1)c1ccc(C(F)(F)F)cc1 [Compound 33c]	activation at 1 µM	%	-0.9
CC(C)Cc1ccc(C2(C(=O)N(C)CC[C@H](Oc3ccc(C(F)(F)F)cc3)c3ccccc3)CC2)cc1 [Compound 36b]	activation at 1 µM	%	-1.1
CC(C(=O)N(C)CC[C@@H](Oc1ccc(C(F)(F)F)cc1)c1ccccc1)c1ccc(CN(C)C)cc1 (some centres unmarked) [Compound 25a]	activation at 1 µM	%	0.8
CC(C)Cc1ccc(C2(C(=O)N(C)CC[C@@H](Oc3ccc(C(F)(F)F)cc3)c3ccccc3)CC2)cc1 [Compound 36a]	activation at 1 µM	%	-1.2
CC(C(=O)N(C)CC[C@H](Oc1ccc(C(F)(F)F)cc1)c1ccccc1)c1ccc(CN(C)C)cc1 (some centres unmarked) [Compound 25b]	activation at 1 µM	%	0.2
CC(C)Cc1cccc(C(C)C(=O)N(C)CC[C@@H](Oc2ccc(C(F)(F)F)cc2)c2ccccc2)c1 (some centres unmarked) [Compound 35a]	activation at 1 µM	%	-1
CC(C)Cc1cccc(C(C)C(=O)N(C)CC[C@H](Oc2ccc(C(F)(F)F)cc2)c2ccccc2)c1 (some centres unmarked) [Compound 35b]	activation at 1 µM	%	1.1
CC(C)Cc1ccc(CC(=O)N(C)CC[C@@H](Oc2ccc(C(F)(F)F)cc2)c2ccccc2)cc1 [Compound 32a]	activation at 1 µM	%	4.5
CCc1ccc(C(C)C(=O)N(C)CC[C@@H](Oc2ccc(C(F)(F)F)cc2)c2ccccc2)cc1 (some centres unmarked) [Compound 34a]	activation at 1 µM	%	-2.9
C[C@@H](C(=O)N(C)CC[C@H](Oc1ccc(C(F)(F)F)cc1)c1ccccc1)c1ccc(C(F)(F)F)cc1 [Compound 33e]	activation at 1 µM	%	1.7
COc1ccc2c(c1)c(CC(=O)N(C)CCC(Oc1ccc(C(F)(F)F)cc1)c1ccccc1)c(C)n2C(=O)c1ccc(Cl)cc1 (centres unmarked)	activation at 1 µM	%	0
CN(Cc1ccccc1)C1CCN(C(C(=O)NCC[C@@H](Oc2ccc(C(F)(F)F)cc2)c2ccccc2)c2nc(-c3ccc(C(F)(F)F)cc3)no2)CC1 (some centres unmarked)	activation at 1 µM	%	6.9

====

molecular target: CB1 receptor (Homo sapiens, UniProt P21554); assay: FLIPR calcium flux assay, agonist format, CB1; type: cell-based; settings: 1 μM, Emax of reference agonist CP-55,940 as 100%

compound	scale unit	% Activation Agonist CB1
CC(C(=O)N(C)CC[C@@H](Oc1ccc(C(F)(F)F)cc1)c1ccccc1)c1ccc(C(F)(F)F)cc1 (stereo partly drawn) [Compound 33a]	%	−0.3
CC(C)Cc1ccc(C2(C(=O)N(C)CC[C@@H](Oc3ccc(C(F)(F)F)cc3)c3ccccc3)CCC2)cc1 [Compound 30a]	%	1.0
C[C@@H]1CCN(C(C(=O)NCC[C@@H](Oc2ccc(C(F)(F)F)cc2)c2ccccc2)c2nc(-c3ccc(C(F)(F)F)cc3)no2)C[C@@H]1COc1ccc(C(F)(F)F)cc1 (stereo partly drawn) [Compound 18]	%	6.2

====

Measured % Inhibition Antagonist CB1, listed per entry.
biological target: CB1 receptor (Homo sapiens); assay: FLIPR calcium flux assay, antagonist format, CB1; format: cell-based; conditions: 1 μM, reference agonist CP-55,940 at EC80 as 0% inhibition
value kind: % Inhibition Antagonist CB1 (%)

compound	scale unit	data value
CC(C)Cc1ccc(CC(=O)N(C)CC[C@H](Oc2ccc(C(F)(F)F)cc2)c2ccccc2)cc1 [Compound 32b]	%	23.0
CC(C)Cc1ccc(C2(C(=O)N(C)CC[C@H](Oc3ccc(C(F)(F)F)cc3)c3ccccc3)CCC2)cc1 [Compound 30b]	%	48.3
CC(C(=O)N(C)CC[C@H](Oc1ccc(C(F)(F)F)cc1)c1ccccc1)c1ccc(CC2CCCC2=O)cc1 (stereo partly shown) [Compound 29b]	%	31.2
C[C@H]1CCN(C(C(=O)NCCOc2ccc(C(F)(F)F)cc2)c2nc(-c3ccc(C(F)(F)F)cc3)no2)C[C@@H]1COc1ccc(C(F)(F)F)cc1 (stereo partly shown) [Compound 20]	%	14.5
CC(C(=O)N(C)CC[C@@H](Oc1ccc(C(F)(F)F)cc1)c1ccccc1)c1ccc(C(F)(F)F)cc1 (stereo partly shown) [Compound 33a]	%	90.7
CN(Cc1ccccc1)C1CCN(C(C(=O)NCCOc2ccc(C(F)(F)F)cc2)c2nc(-c3ccc(C(F)(F)F)cc3)no2)CC1 (stereo not shown) [Compound 24]	%	4.6
CC(C)Cc1ccc(C2(C(=O)N(C)CC[C@@H](Oc3ccc(C(F)(F)F)cc3)c3ccccc3)CCC2)cc1 [Compound 30a]	%	84.6

====

Measured inhibition at 1 µM, listed per entry.
molecular target: GLP-1 receptor (Homo sapiens, UniProt P43220); assay: FLIPR calcium flux assay, antagonist format, GLP-1; format: cell-based; settings: 1 μM, reference ligand Glucagon at EC80 as 0% inhibition; read-out: % Inhibition Antagonist GLP-1
Sequence (P43220 24-463): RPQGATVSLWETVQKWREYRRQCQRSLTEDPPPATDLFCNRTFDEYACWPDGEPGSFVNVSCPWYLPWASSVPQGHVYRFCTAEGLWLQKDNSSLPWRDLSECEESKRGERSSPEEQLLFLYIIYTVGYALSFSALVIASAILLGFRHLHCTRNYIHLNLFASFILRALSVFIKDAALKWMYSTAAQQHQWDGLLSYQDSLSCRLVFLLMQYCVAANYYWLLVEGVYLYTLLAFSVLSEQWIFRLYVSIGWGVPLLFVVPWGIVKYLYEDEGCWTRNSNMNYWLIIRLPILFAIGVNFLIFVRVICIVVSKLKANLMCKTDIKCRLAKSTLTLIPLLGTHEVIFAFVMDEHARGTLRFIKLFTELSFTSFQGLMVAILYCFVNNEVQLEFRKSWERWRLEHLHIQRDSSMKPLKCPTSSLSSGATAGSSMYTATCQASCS
value kind: inhibition at 1 µM (%)

In [3]: df
Out[3]:
                                    compound                       experimental_target          value_kind  data_value
 0  CC(C(=O)N(C)CC[C@H](Oc1ccc(C(F)(F)F)cc1)c1ccccc1)c1ccc(CN(C)C)cc1 (some centres unmarked) [Compound 25b]  GLP-1 receptor (Homo sapiens, UniProt P43220)  inhibition at 1 µM         6.9
 1  O=C(c1ccccc1)c1ccc2n1CCC2C(=O)NCC[C@@H](Oc1ccc(C(F)(F)F)cc1)c1ccccc1 (some centres unmarked)  GLP-1 receptor (Homo sapiens, UniProt P43220)  inhibition at 1 µM        -6.3
 2  CC(C)Cc1ccc([C@H](C)C(=O)N(C)CCC(Oc2ccc(C(F)(F)F)cc2)c2ccccc2)cc1 (some centres unmarked)  GLP-1 receptor (Homo sapiens, UniProt P43220)  inhibition at 1 µM       -14.9
 3  CC(C)Cc1ccc([C@H](C)C(=O)N(C)CC[C@@H](Oc2ccc(C(F)(F)F)cc2)c2ccccc2)cc1 [Compound 12a]  GLP-1 receptor (Homo sapiens, UniProt P43220)  inhibition at 1 µM         4.5
 4  CC(C)Cc1ccc(C2(C(=O)N(C)CC[C@@H](Oc3ccc(C(F)(F)F)cc3)c3ccccc3)CC2)cc1 [Compound 36a]  GLP-1 receptor (Homo sapiens, UniProt P43220)  inhibition at 1 µM          11
 5  CCc1ccc(C(C)C(=O)N(C)CC[C@@H](Oc2ccc(C(F)(F)F)cc2)c2ccccc2)cc1 (some centres unmarked) [Compound 34a]  GLP-1 receptor (Homo sapiens, UniProt P43220)  inhibition at 1 µM          -1
 6  CC(C(=O)N(C)CC[C@@H](Oc1ccc(C(F)(F)F)cc1)c1ccccc1)c1ccc(CN(C)C)cc1 (some centres unmarked) [Compound 25a]  GLP-1 receptor (Homo sapiens, UniProt P43220)  inhibition at 1 µM         5.7
 7  C[C@@H](C(=O)N(C)CC[C@@H](Oc1ccc(C(F)(F)F)cc1)c1ccccc1)c1ccc(C(F)(F)F)cc1 [Compound 33c]  GLP-1 receptor (Homo sapiens, UniProt P43220)  inhibition at 1 µM         0.2
 8  C[C@H](C(=O)N(C)CC[C@@H](Oc1ccc(C(F)(F)F)cc1)c1ccccc1)c1ccc(C(F)(F)F)cc1 [Compound 33d]  GLP-1 receptor (Homo sapiens, UniProt P43220)  inhibition at 1 µM        11.4
 9  CC(C)Cc1ccc([C@H](C)C(=O)N(C)CC[C@H](Oc2ccc(C(F)(F)F)cc2)c2ccccc2)cc1 [Compound 12b]  GLP-1 receptor (Homo sapiens, UniProt P43220)  inhibition at 1 µM         5.9
10  C[C@H](C(=O)NCC[C@@H](Oc1ccc(C(F)(F)F)cc1)c1ccccc1)c1cccc(C(=O)c2ccccc2)c1  GLP-1 receptor (Homo sapiens, UniProt P43220)  inhibition at 1 µM        -7.2
11  CC(C)Cc1ccc([C@H](C)C(=O)NCC[C@@H](Oc2ccc(C(F)(F)F)cc2)c2ccccc2)cc1  GLP-1 receptor (Homo sapiens, UniProt P43220)  inhibition at 1 µM       -21.8
12  CN(CCC(Oc1ccc(C(F)(F)F)cc1)c1ccccc1)C(=O)C1CCn2c(C(=O)c3ccccc3)ccc21 (centres unmarked)  GLP-1 receptor (Homo sapiens, UniProt P43220)  inhibition at 1 µM       -15.4
13  COc1ccc2c(c1)c(CC(=O)NCC[C@@H](Oc1ccc(C(F)(F)F)cc1)c1ccccc1)c(C)n2C(=O)c1ccc(Cl)cc1  GLP-1 receptor (Homo sapiens, UniProt P43220)  inhibition at 1 µM           0
